STUDY_SYSTEM: His-tagged Stat3 (Mus musculus, UniProt P42227)
Construct: Coding regions for the murine Stat3 protein; made in house; host or cells: E. coli BL21(DE3)
Sequence (P42227 whole entry): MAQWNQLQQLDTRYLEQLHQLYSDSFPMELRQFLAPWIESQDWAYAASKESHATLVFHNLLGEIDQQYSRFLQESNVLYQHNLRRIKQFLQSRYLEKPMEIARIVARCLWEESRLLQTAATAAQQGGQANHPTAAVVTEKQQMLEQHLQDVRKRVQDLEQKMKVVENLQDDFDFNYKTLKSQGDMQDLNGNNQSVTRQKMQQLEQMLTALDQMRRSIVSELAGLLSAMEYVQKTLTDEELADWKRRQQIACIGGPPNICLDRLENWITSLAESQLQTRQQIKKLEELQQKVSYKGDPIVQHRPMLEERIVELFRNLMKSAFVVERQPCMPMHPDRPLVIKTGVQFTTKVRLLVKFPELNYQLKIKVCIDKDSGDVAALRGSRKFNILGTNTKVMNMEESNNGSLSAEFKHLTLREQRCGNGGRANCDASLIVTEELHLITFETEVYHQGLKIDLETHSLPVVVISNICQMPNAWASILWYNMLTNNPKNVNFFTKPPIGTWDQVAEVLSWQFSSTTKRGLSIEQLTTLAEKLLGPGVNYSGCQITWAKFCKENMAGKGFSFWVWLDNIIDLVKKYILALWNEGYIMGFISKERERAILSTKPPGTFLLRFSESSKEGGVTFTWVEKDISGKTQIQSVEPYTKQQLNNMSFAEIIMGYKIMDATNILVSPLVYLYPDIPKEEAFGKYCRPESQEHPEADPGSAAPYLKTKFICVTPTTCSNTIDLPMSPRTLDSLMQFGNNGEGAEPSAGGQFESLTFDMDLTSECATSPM
PROCEDURE_DETAILS: Surface Plasmon Resonance analysis of binding to immobilized His-tagged Stat3
Set-up: species or system murine
MEASUREMENT_CONTEXT: affinity (KD) for Stat3 or the SH2 domain, SPR
ENDPOINT_LABEL: Kd (nM)
The reply should contain only the number, in nM.

Which Kd reading was recorded for the molecule Cc1ccc(S(=O)(=O)N(C)CC(=O)N(Cc2ccc(C3CCCCC3)cc2)c2ccc(C(=O)O)c(O)c2)cc1 [S3I-201.1066] ?
2300

----------
STUDY_SYSTEM: His-tagged Stat3 (Mus musculus)
Construct: Coding regions for the murine Stat3 protein; made in house; host or cells: E. coli BL21(DE3)
PROCEDURE_DETAILS: Surface Plasmon Resonance analysis of binding to immobilized His-tagged Stat3
Parameters: species or system murine
MEASUREMENT_CONTEXT: binding affinity, Ko / KD for Stat3, SPR, immobilized His-Stat3
ENDPOINT_LABEL: pKd
Remember the convention: pKd equals -log10 of concentration in molar.

Which pKd reading was recorded for the compound "Cc1ccc(S(=O)(=O)N(C)CC(=O)N(Cc2ccc(C3CCCCC3)cc2)c2ccc(C(=O)O)c(O)c2)cc1" ?
8.56

----------
STUDY_SYSTEM: Stat3 (Mus musculus)
Sequence (P42227 whole entry): as above
PROCEDURE_DETAILS: Stat3 DNA-binding assay in vitro (EMSA, hSIE probe), nuclear extracts of NIH3T3/v-Src
Format: biochemical
Set-up: endogenous in cells; host or cells: NIH3T3/v-Src mouse fibroblasts (nuclear extract)
MEASUREMENT_CONTEXT: 30 min pre-incubation at room temperature, read-out: IC50, inhibition of Stat3 DNA-binding activity in vitro
ENDPOINT_LABEL: IC50 (µM)
The reply should contain only the number, in µM.

Which IC50 reading was recorded for the compound Cc1ccc(S(=O)(=O)N(C)CC(=O)N(Cc2ccc(C3CCN(c4ccc(C#N)cc4)CC3)cc2)c2ccc(C(=O)O)c(O)c2)cc1 [S3I-201.2096] ?
45
